Entry source: paper PMC10786891

Biological target: T1, EsCas13d, nuclease-dead (Eubacterium siraeum, UniProt B0MS50, R295A;H300A;R849A;H854A)
T1 sequence: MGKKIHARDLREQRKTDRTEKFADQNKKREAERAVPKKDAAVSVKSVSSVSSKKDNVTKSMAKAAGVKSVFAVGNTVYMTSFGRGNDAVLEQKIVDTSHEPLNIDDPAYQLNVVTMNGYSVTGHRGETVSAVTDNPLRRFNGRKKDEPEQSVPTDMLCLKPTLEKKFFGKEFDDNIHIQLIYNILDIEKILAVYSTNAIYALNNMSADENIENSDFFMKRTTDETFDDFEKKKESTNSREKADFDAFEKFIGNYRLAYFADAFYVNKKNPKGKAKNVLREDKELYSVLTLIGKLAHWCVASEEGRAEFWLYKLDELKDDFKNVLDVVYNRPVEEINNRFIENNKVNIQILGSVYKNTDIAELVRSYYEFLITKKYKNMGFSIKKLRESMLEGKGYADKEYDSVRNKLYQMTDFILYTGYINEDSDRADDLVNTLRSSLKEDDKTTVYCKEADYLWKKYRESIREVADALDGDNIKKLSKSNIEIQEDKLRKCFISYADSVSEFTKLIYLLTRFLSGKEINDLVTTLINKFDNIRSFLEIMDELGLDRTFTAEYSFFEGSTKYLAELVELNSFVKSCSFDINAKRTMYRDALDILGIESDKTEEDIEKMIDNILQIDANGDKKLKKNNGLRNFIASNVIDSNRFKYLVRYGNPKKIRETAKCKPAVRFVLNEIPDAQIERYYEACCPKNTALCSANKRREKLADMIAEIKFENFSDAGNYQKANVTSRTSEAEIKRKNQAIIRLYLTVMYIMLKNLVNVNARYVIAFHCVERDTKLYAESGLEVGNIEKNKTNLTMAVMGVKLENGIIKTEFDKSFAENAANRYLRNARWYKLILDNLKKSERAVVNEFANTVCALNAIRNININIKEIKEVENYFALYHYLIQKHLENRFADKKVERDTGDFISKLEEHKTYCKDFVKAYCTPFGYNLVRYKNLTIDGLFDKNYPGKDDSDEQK
Experiment: crRNA (strand 1, pre-loaded); Mg2+; 40 mM Tris-HCl pH 7.5, 150 mM NaCl, 6 mM MgCl2, 1 mM DTT, 0.1% Tween-20, 0.2 mg/ml BSA; 25 C; 10 min per concentration, then washed
Conditions: tags: His6-TwinStrep-SUMO cleaved; N-terminal SNAP kept (SNAP-Surface 488); label: 3' end held by stalled T7 RNA polymerase

BINDER: target 3 insC 3' of 9,insU 3' of 6 (mixed) RNA 1: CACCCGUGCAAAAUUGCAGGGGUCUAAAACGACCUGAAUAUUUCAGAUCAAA RNA 2: GGGAAUGGAUCCACAUCUACGAAUUCGUUUUUGAUCUGAAAUACUUCUAGGUCUGCAGAUCGGAAGAGCACACGU
Kd / nM: 82
